Test system: S. Typhimurium SL1344 (sifB::gfp) in RAW 264.7 macrophages
Test: SAFIRE macrophage assay: intracellular bacterial load (GFP signal within macrophages)
Assay type: cell-based, Salmonella enterica serotype Typhimurium
Conditions: 25 uM; 'Toxic' given instead of a score
Method: In SAFIRE, we used MATLAB software to count the number of macrophages that remain adherent and retain the red fluorescence of MitoTracker, an indicator of voltage across the mitochondrial inner membrane. […] Non-toxic analogs that reduced bacterial load by at least 60% at 5 µM and 25 µM in SAFIRE, as compared with DMSO, progressed and were evaluated in SAFIRE across eight or more concentrations, ranging from 0.001 µM to 50 µM (n = 2). […]
Reported Property: 25 uM Avg Antibacterial Score

{"Molecule": "OC(COc1cccc(C(F)(F)F)c1)CN1CCC(Nc2nccc(C(F)(F)F)n2)CC1 (centres unmarked)", "Value Observed": "Toxic"}
{"Molecule": "N#Cc1cccc(OCC(O)CN2CCC(Nc3nccc(C(F)(F)F)n3)CC2)c1 (centres unmarked)", "Value Observed": 19}
{"Molecule": "OC(COc1ccc(Cl)c(Cl)c1)CN1CCCN(c2nccc(C(F)(F)F)n2)CC1 (centres unmarked)", "Value Observed": "Toxic"}
{"Molecule": "OC(COc1ccc2c(c1)OCO2)CN1CCC(Nc2nccc(C(F)(F)F)n2)C1 (centres unmarked)", "Value Observed": 25}

Could you now look at the following molecule, please?
For the molecule CC(=O)Nc1ccc(OCC(O)CN2CCC(Nc3nccc(C(F)(F)F)n3)CC2)cc1 (centres unmarked) , give its measured 25 uM Avg Antibacterial Score value.
103
